Examples of compounds with documented Ki follow.
target: human D2LR (Homo sapiens); test: Radioligand competition, [3H]spiperone, CHO cell membranes
Sequence (P14416 whole entry): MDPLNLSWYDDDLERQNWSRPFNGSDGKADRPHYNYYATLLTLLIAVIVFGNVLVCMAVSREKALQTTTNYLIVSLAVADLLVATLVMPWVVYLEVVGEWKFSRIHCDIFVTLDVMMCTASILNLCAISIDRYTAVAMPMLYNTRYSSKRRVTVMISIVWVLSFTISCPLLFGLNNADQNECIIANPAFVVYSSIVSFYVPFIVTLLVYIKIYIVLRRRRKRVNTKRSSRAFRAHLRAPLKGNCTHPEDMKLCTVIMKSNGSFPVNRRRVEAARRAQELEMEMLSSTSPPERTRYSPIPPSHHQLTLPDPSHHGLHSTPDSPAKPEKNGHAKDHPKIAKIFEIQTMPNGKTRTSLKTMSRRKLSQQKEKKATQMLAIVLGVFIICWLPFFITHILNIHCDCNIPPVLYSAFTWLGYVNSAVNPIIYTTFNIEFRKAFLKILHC
Your answer should be a plain number; it is taken to be in nM.

>>> assay_result("CN(C)c1cccc2c(S(=O)(=O)NCCCNC(=O)c3ccc(-n4cc(CCCCN5CCN(c6cccc(Cl)c6Cl)CC5)nn4)cc3)cccc12")
13
>>> assay_result("CC(C)(C)c1nc(N2CCN(CCCCc3cn(-c4ccc(C#N)cc4)nn3)CC2)cc(C(F)(F)F)n1")
360
>>> assay_result("CCCN(CCCCc1cn(-c2ccc(CNC(=O)c3ccc(-c4c5ccc(=NCC(F)(F)F)cc-5oc5cc(NCC(F)(F)F)ccc45)c(C(=O)O)c3)cc2)nn1)C1Cc2ccccc2C1 [10a]")
46

Next:
Req: Fill in: Ki on human D2LR (Homo sapiens), entry CCCN(CCCCc1cn(-c2ccc(C#N)cc2)nn1)C1Cc2ccccc2C1
Resp: 8.7

---

Examples of compounds with documented Ki follow.
Biological target: human D4R (Homo sapiens)
Sequence (P21917 1-419): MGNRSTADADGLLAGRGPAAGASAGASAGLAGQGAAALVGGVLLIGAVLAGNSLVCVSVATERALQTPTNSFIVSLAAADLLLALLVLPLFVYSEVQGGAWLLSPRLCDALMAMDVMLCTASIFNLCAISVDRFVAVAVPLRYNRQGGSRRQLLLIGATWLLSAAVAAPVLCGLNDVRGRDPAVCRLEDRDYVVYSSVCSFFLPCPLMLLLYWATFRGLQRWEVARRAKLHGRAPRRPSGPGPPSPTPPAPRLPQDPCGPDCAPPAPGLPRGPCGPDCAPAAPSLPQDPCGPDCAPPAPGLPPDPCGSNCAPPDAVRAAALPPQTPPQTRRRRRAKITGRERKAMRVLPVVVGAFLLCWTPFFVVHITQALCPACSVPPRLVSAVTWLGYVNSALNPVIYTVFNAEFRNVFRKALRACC
Assay: Radioligand competition, [3H]spiperone, CHO cell membranes
Your answer should be a plain number; it is taken to be in nM.

Examples with answers:
>>> assay_result("CC(C)(C)c1nc(N2CCN(CCCCc3cn(-c4ccc(C#N)cc4)nn3)CC2)cc(C(F)(F)F)n1")
5000
>>> assay_result("N#Cc1ccc(-n2cc(CCCCN3CCN(c4cccc(Cl)c4Cl)CC3)nn2)cc1")
120

Req: Given the compound CCCN(CCCCc1cn(-c2ccc(C(=O)NCCCN)cc2)nn1)C1Cc2ccccc2C1 , write its reported Ki.
Resp: 8.5

Req: Given the compound CN(C)c1cccc2c(S(=O)(=O)NCc3ccc(-n4cc(CCCCN5CCN(c6cccc(Cl)c6Cl)CC5)nn4)cc3)cccc12 , write its reported Ki.
Resp: 59

---

Biological target: UniProt A0A4X1UTF5
Sequence (A0A4X1UTF5 1-422): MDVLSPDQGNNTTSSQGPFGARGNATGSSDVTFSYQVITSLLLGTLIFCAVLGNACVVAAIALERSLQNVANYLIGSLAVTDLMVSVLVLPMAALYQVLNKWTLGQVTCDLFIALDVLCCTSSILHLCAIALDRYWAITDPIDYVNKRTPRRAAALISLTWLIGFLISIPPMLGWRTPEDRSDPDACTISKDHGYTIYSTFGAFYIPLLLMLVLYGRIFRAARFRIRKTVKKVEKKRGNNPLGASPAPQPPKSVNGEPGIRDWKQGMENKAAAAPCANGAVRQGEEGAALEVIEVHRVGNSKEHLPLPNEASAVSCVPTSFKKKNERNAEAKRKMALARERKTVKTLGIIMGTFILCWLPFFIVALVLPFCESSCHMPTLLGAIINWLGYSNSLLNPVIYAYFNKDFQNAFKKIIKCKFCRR
Reported Endpoint: Ki

>>> assay_result("N#Cc1ccc(-n2cc(CCCCN3CCN(c4cccc(Cl)c4Cl)CC3)nn2)cc1")
"260 nM"

Req: Fill in: Ki on UniProt A0A4X1UTF5, entry CN(C)c1cccc2c(S(=O)(=O)NCc3ccc(-n4cc(CCCCN5CCN(c6cc(C(F)(F)F)nc(C(C)(C)C)n6)CC5)nn4)cc3)cccc12
Resp: > 10000 nM

Req: Fill in: Ki on UniProt A0A4X1UTF5, entry CN(C)c1cccc2c(S(=O)(=O)NCc3ccc(-n4cc(CCCCN5CCN(c6cccc(Cl)c6Cl)CC5)nn4)cc3)cccc12
Resp: 78 nM

Req: Fill in: Ki on UniProt A0A4X1UTF5, entry COc1ccccc1N1CCN(CCCCc2cn(-c3ccc(C#N)cc3)nn2)CC1
Resp: 25 nM

Req: Fill in: Ki on UniProt A0A4X1UTF5, entry CCCN(CCCCc1cn(-c2ccc(C(=O)NCCCNC(=O)c3ccc(-c4c5ccc(=N)c(S(=O)(=O)O)c-5oc5c(S(=O)(=O)O)c(N)ccc45)c(C(=O)O)c3)cc2)nn1)C1Cc2ccccc2C1 [10c]
Resp: 85 nM

Req: Fill in: Ki on UniProt A0A4X1UTF5, entry CCCN(CCCCc1cn(-c2ccc(C(=O)NCCCNC(=O)Cc3ccc4c(c3)C(C)(C)C3=C5C=C6C7=[N+](CCC6OC5CCN34)c3ccc(S(=O)(=O)[O-])cc3C7(C)C)cc2)nn1)C1Cc2ccccc2C1 (stereo not drawn) [10b]
Resp: 120 nM
